Biological target: HLA A*3001 (Homo sapiens, UniProt P04439, D140H/D185E/E176W/F33S/G80R/H175R/K168Q/R138E/R41S)
Experiment: biochemical
Where a SMILES comes first, the peptide text is derived from it.
Answer each item with its documented IC50.
Numbers only, in nM.

Example cases with answers are listed next.
{"columns": ["COMPOUND", "MEASURED RESULT"],
 "data": [
  ["CC[C@H](C)[C@H](NC(=O)[C@H](CC(N)=O)NC(=O)[C@H](CCCNC(=N)N)NC(=O)[C@@H](NC(=O)[C@H](CCCNC(=N)N)NC(=O)[C@H](CO)NC(=O)CN)C(C)C)C(=O)N[C@H](C(=O)N[C@@H](C)C(=O)O)[C@@H](C)CC [3102.0112] (H-GSRVRNIIA-OH)", 8.9],
  ["CC[C@H](C)[C@H](NC(=O)[C@H](Cc1ccc(O)cc1)NC(=O)[C@H](CO)NC(=O)[C@H](CC(C)C)NC(=O)[C@H](Cc1ccccc1)NC(=O)[C@H](Cc1c[nH]cn1)NC(=O)[C@H](CCCNC(=N)N)NC(=O)[C@@H](NC(=O)[C@@H](N)CCCNC(=N)N)[C@@H](C)O)C(=O)O [3102.0111] (H-RTRHFLSYI-OH)", 0.24]
]}

Next compound, IC50 to be filled in.
Entry under test: CC[C@H](C)[C@H](NC(=O)[C@H](CC(N)=O)NC(=O)[C@@H]1CCCN1C(=O)[C@@H](NC(=O)[C@H](Cc1c[nH]cn1)NC(=O)[C@H](CC(N)=O)NC(=O)[C@H](CCCCN)NC(=O)[C@@H](NC(=O)[C@@H](N)CCCCN)C(C)C)[C@@H](C)CC)C(=O)O [3102.0222] (H-KVKNHIPNI-OH) . Its IC50 was 0.68

---

Give Normalized average relative binding affinity(ARB) for every item shown.
Target: H-2 D^d (Mus musculus, UniProt P01900)
Sequence (P01900 whole entry, looked up): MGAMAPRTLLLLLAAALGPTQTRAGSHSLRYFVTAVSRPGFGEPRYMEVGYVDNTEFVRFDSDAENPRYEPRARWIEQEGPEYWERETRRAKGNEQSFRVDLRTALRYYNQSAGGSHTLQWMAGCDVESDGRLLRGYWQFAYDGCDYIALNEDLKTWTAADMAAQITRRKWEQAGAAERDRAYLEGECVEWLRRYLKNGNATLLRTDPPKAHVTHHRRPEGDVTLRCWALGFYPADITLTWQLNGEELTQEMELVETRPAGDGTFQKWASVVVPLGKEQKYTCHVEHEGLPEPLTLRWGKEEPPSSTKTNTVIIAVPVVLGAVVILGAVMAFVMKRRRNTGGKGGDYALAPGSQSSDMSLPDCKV
Format: binding
One number for each entry.

Give me Normalized average relative binding affinity(ARB) for each of these sequences, listed below.
1. XXXPXXXXX [3064.0073]
2. XXXXXXXDX [3064.0143]
3. XXXXVXXXX [3064.0098]
4. XXXXGXXXX [3064.0086]
5. XXXXXXVXX [3064.0138]
6. XXXXXKXXX [3064.0109]
7. XXXXXXXVX [3064.0158]
8. XXXXXTXXX [3064.0117]

[0.15, 0.44, 0.25, 0.11, 0.045, 0.30, 0.52, 1.0]

# return Normalized average relative binding affinity(ARB) for each item in the list
1. XXXXXGXXX [3064.0106]
2. XXXXXXXCX [3064.0142]
3. XXXXXXXIX [3064.0148]

1. 0.48
2. 0.78
3. 0.25

For each listed entry, give its Normalized average relative binding affinity(ARB).
1. XXXXXXXLX [3064.0150]
2. XXXSXXXXX [3064.0076]
3. XXXXXXXEX [3064.0144]
4. XXXXXEXXX [3064.0104]

0.80
0.58
0.65
0.31

Reported Normalized average relative binding affinity(ARB) for XXXXQXXXX [3064.0094] was 0.15

---

Target: HLA B*0801 (Homo sapiens, UniProt P01889, A93T/A95T/D138N/E176V/E187T/K202T/Q94N/R180D/S35A/V36M/Y33D/Y91F)
Assay: biochemical
Assay type: binding
READOUT NAME: Normalized average relative binding affinity(ARB)
Give bare numbers.

Consider the following illustrative entries.
{"columns": ["CHAIN SEQUENCE", "MEASURED RESULT"],
 "data": [
  ["XXXLXXXXX [3064.0070]", 0.61],
  ["XXXXPXXXX [3064.0093]", 0.011],
  ["XXXKXXXXX [3064.0069]", 0.52]
]}

Okay, here is my list. What is Normalized average relative binding affinity(ARB) for each of these?
1. XXXXSXXXX [3064.0096]
2. XXXXTXXXX [3064.0097]
3. XXXXGXXXX [3064.0086]

1: 0.065; 2: 0.011; 3: 0.029

---

Target: H-2 D^b (Mus musculus, UniProt P01899)
Format: binding
Exercise: for every item that follows, state its recorded Normalized average relative binding affinity(ARB).
One number for each entry.

Observe how each entry below is paired with its result.
{"columns": ["CHAIN SEQUENCE", "SYSTEM TESTED", "MEASURED RESULT"],
 "data": [
  ["XXXXYXXXX [3064.0100]", "H-2 D^b (Mus musculus, UniProt P01899)", 0.013],
  ["XXXXXFXXX [3064.0105]", "H-2 D^b (Mus musculus, UniProt P01899)", 0.70],
  ["XXXFXXXXX [3064.0065]", "H-2 D^b (Mus musculus, UniProt P01899)", 0.38],
  ["XXXEXXXXX [3064.0064]", "H-2 D^b (Mus musculus, UniProt P01899)", 0.35],
  ["XXXXXXXMX [3064.0151]", "H-2 D^b (Mus musculus, UniProt P01899)", 0.17],
  ["XXXXXXKXX [3064.0129]", "H-2 D^b (Mus musculus, UniProt P01899)", 0.062],
  ["XXXMXXXXX [3064.0071]", "H-2 D^b (Mus musculus, UniProt P01899)", 0.65]
]}

Here is the next item to consider.
Normalized average relative binding affinity(ARB) measured on XXXXXGXXX [3064.0106] = 0.76

---

Target: HLA B*0801 (Homo sapiens, UniProt P01889, A93T/A95T/D138N/E176V/E187T/K202T/Q94N/R180D/S35A/V36M/Y33D/Y91F)
Test: biochemical
Where a SMILES comes first, the peptide text is derived from it.
READOUT NAME: pIC50
One number for each entry, as −log10 of the molar value.

Field: example entries. Status: answers known.
{"columns": ["COMPOUND", "MEASURED RESULT"],
 "data": [
  ["CC[C@H](C)[C@H](NC(=O)[C@H](CC(N)=O)NC(=O)[C@H](CC(C)C)NC(=O)[C@H](CCCCN)NC(=O)[C@H](CC(N)=O)NC(=O)[C@H](CCSC)NC(=O)[C@@H](NC(=O)[C@@H](N)CC(N)=O)[C@@H](C)CC)C(=O)N[C@H](C(=O)O)C(C)C [3102.0721] (H-NIMNKLNIV-OH)", 8.24],
  ["CC[C@H](C)[C@H](NC(=O)[C@H](CC(C)C)NC(=O)[C@H](Cc1c[nH]cn1)NC(=O)[C@H](CCCCN)NC(=O)[C@H](Cc1ccc(O)cc1)NC(=O)[C@@H](NC(=O)[C@@H]1CCCN1C(=O)[C@@H](N)CCSC)[C@@H](C)O)C(=O)N[C@@H](CCSC)C(=O)O [3102.0727] (H-MPTYKHLIM-OH)", 9.89]
]}

Moving on to another compound below.
# pIC50 of CC[C@H](C)[C@H](NC(=O)[C@H](CCCCN)NC(=O)[C@H](CC(C)C)NC(=O)[C@@H](N)Cc1ccccc1)C(=O)N[C@@H](CCCCN)C(=O)N[C@H](C(=O)N[C@H](C(=O)N[C@@H](C)C(=O)N[C@@H](C)C(=O)O)[C@@H](C)O)C(C)C [3102.0685] (H-FLKIKVTAA-OH) = 7.82

---

Answer each item with its documented Normalized average relative binding affinity(ARB).
Molecular target: HLA B*0801 (Homo sapiens, UniProt P01889, A93T/A95T/D138N/E176V/E187T/K202T/Q94N/R180D/S35A/V36M/Y33D/Y91F)
Experiment: biochemical
Assay type: binding
Answers are plain numbers.

Answered cases to consult:
{"columns": ["CHAIN SEQUENCE", "MEASURED RESULT"],
 "data": [
  ["XXXXXXXPX [3064.0153]", 0.73],
  ["XXXFXXXXX [3064.0065]", 0.55]
]}

// for each sequence below, give its Normalized average relative binding affinity(ARB)
1. XXXXXXDXX [3064.0123]
2. XXXXXXXRX [3064.0155]

1. 0.072
2. 0.30

Batch of 6 sequences: report Normalized average relative binding affinity(ARB) for each.
1. XXXQXXXXX [3064.0074]
2. XXXXXXPXX [3064.0133]
3. XXXXXXCXX [3064.0122]
4. XXXXXPXXX [3064.0113]
5. XXXXWXXXX [3064.0099]
6. XXXXXXGXX [3064.0126]

0.90
0.36
0.44
0.039
0.023
0.17

// for each sequence below, give its Normalized average relative binding affinity(ARB)
1. XXXXXXXCX [3064.0142]
2. XXXXRXXXX [3064.0095]
3. XXXXXHXXX [3064.0107]
4. XXXXXXXYX [3064.0160]
5. XXXXXXXLX [3064.0150]
6. XXXXXXXVX [3064.0158]

0.22
1.0
0.12
0.13
0.11
0.48
